Taken from patent US11952364B2.

Listing of entries alongside the reported IC50.
System: Ba/F3 LMNA-NTRK1-G667C cells
Assay: Proliferation of Ba/F3 LMNA-NTRK1-G667C cells (CellTiter-Glo)
Type: cell-based, mouse
Conditions: Mus musculus, BaF3, Table 4-2; separate test; read-out: Ba/F3 LMNA-NTRK1-G667C, IC50

Observe how each entry below is paired with its result.
compound=CSc1ccc(C(=O)Nc2ccc(Oc3cc4cnn(C)c4cc3-c3cn[nH]c3)c(F)c2)c(=O)n1-c1ccc(F)cc1 study_system="Ba/F3 LMNA-NTRK1-G667C cells" obs_value="10.5 nM"
compound="Cc1ccc(C(=O)Nc2ccc(Oc3cc4cnn(C)c4cc3-c3cn[nH]c3)c(F)c2)c(=O)n1-c1ccc(F)cc1 [Merestinib, reference compound]" study_system="Ba/F3 LMNA-NTRK1-G667C cells" obs_value="14.1 nM"
compound=Cn1ncc2cc(Oc3ccc(NC(=O)c4ccc(OC5CC5)n(-c5ccc(F)cc5)c4=O)cc3F)c(-c3cn[nH]c3)cc21 study_system="Ba/F3 LMNA-NTRK1-G667C cells" obs_value="10.8 nM"

Request the reported IC50 associated with CCn1ncc2cc(Oc3ccc(NC(=O)c4ccc(OC(C)C)n(-c5ccc(F)cc5)c4=O)cc3F)c(-c3cn[nH]c3)cc21
17.5 nM

Queued: CC(C)Oc1ccc(C(=O)Nc2ccc(Oc3cc4cnn(C)c4cc3-c3cn[nH]c3)c(F)c2)c(=O)n1-c1ccc(F)cc1
10.7 nM

Queued: CCOc1ccc(C(=O)Nc2ccc(Oc3cc4cnn(C)c4cc3-c3cn[nH]c3)c(F)c2)c(=O)n1-c1ccc(F)cc1
8.6 nM

* * *

System: Ba/F3 ETV6-NTRK2-G639R cells
Assay: Proliferation of Ba/F3 ETV6-NTRK2-G639R cells (CellTiter-Glo)
Format: cell-based
Details: Mus musculus, BaF3; Table 6; 72 hours
parameter: IC50 (µM)
Answer format: numeric, µM implied, no suffix.

Observe how each entry below is paired with its result.
molecule="Cc1ccc(C(=O)Nc2ccc(Oc3cc4cnn(C)c4cc3-c3cn[nH]c3)c(F)c2)c(=O)n1-c1ccc(F)cc1 [Merestinib, reference compound]" obs_value=3.04
molecule=Cn1ncc2cc(Oc3ccc(NC(=O)c4ccc(C(F)(F)F)n(-c5ccc(F)cc5)c4=O)cc3F)c(-c3cn[nH]c3)cc21 obs_value=3.12
molecule=Cn1ncc2cc(Oc3ccc(NC(=O)c4ccc(C5CC5)n(-c5ccc(F)cc5)c4=O)cc3F)c(-c3cn[nH]c3)cc21 obs_value=1.88
molecule=CCn1ncc2cc(Oc3ccc(NC(=O)c4ccc(C)n(-c5ccc(F)cc5)c4=O)cc3F)c(-c3cn[nH]c3)cc21 obs_value=9.87
molecule=CCc1ccc(C(=O)Nc2ccc(Oc3cc4cnn(C)c4cc3-c3cn[nH]c3)c(F)c2)c(=O)n1-c1ccc(F)cc1 obs_value=2.69

// switching to the query molecule
Request the reported IC50 associated with CC(C)c1ccc(C(=O)Nc2ccc(Oc3cc4cnn(C)c4cc3-c3cn[nH]c3)c(F)c2)c(=O)n1-c1ccc(F)cc1
2.79

* * *

Listing of entries alongside the reported IC50.
Test system: Ba/F3 ETV6-NTRK3-G696C cells
Assay: Proliferation of Ba/F3 ETV6-NTRK3-G696C cells (CellTiter-Glo)
Type: cell-based, mouse
Conditions: Mus musculus, BaF3, 72 h, Table 7; 72 hours; read-out: Ba/F3 ETV6-NTRK3-G696C, IC50
Answer format: numeric, µM implied, no suffix.

molecule="Cn1ncc2cc(Oc3ccc(NC(=O)c4ccc(C(F)(F)F)n(-c5ccc(F)cc5)c4=O)cc3F)c(-c3cn[nH]c3)cc21 [Example 1]" study_system="Ba/F3 ETV6-NTRK3-G696C cells" parameter=IC50 units=µM obs_value=0.033
molecule="O=C(Nc1cnn2ccc(N3CCC[C@@H]3c3cc(F)ccc3F)nc12)N1CC[C@H](O)C1 [LOXO-101, Larotrectinib, reference compound]" study_system="Ba/F3 ETV6-NTRK3-G696C cells" parameter=IC50 units=µM obs_value=1.89
molecule="CCc1ccc(C(=O)Nc2ccc(Oc3cc4cnn(C)c4cc3-c3cn[nH]c3)c(F)c2)c(=O)n1-c1ccc(F)cc1 [Example 5]" study_system="Ba/F3 ETV6-NTRK3-G696C cells" parameter=IC50 units=µM obs_value=0.0068

Request the reported IC50 associated with Cn1ncc2cc(Oc3ccc(NC(=O)c4ccc(C5CC5)n(-c5ccc(F)cc5)c4=O)cc3F)c(-c3cn[nH]c3)cc21 [Example 2]
0.02

Queued: CC(C)c1ccc(C(=O)Nc2ccc(Oc3cc4cnn(C)c4cc3-c3cn[nH]c3)c(F)c2)c(=O)n1-c1ccc(F)cc1 [Example 6]
0.016

Queued: CCn1ncc2cc(Oc3ccc(NC(=O)c4ccc(C)n(-c5ccc(F)cc5)c4=O)cc3F)c(-c3cn[nH]c3)cc21 [Example 3]
0.018

Queued: Cc1ccc(C(=O)Nc2ccc(Oc3cc4cnn(C)c4cc3-c3cn[nH]c3)c(F)c2)c(=O)n1-c1ccc(F)cc1 [Merestinib, reference compound]
0.01

Queued: Cc1ccc(C(=O)Nc2ccc(Oc3cc4cnn(C(C)C)c4cc3-c3cn[nH]c3)c(F)c2)c(=O)n1-c1ccc(F)cc1 [Example 4]
0.034
